experiment: Pharmacokinetics of S9229 in rats, single iv or oral dose; assay type: in vivo, Sprague-Dawley rats; conditions: female, Sprague-Dawley, rat, plasma, po
Endpoint Name: bioavailability

                            entry_smiles  experimental_result
0  COC[C@@H](CC(C)C)NC(=O)c1ccc(C)c(C)c1         0.09 to 0.1%

----------
assay: Pharmacokinetics of S807 in rats, single iv or oral dose; type: in vivo, Sprague-Dawley rats; settings: female, Sprague-Dawley, rat, plasma, po, 50 mg/kg
Endpoint Name: AUC(0-t) (µg·h/mL)

                                molecule  unit_annotation  experimental_result
0  CCCC(CCC)NC(=O)c1ccc2c(c1)OCO2 [S807]          µg·h/mL                 1.41

----------
assay: Toxicokinetics of S9229 in the 28-day rat study; assay type: in vivo, Sprague-Dawley rats; conditions: female, Sprague-Dawley [Crl:CD(SD)], rat, plasma, po, 30 mg/kg, Cmax, Day 28, 30 mg/kg bw, F
Endpoint Name: Cmax (ng/mL)

In [3]: df
Out[3]:
                            entry_smiles  endpoint_name  experimental_result
0  COC[C@@H](CC(C)C)NC(=O)c1ccc(C)c(C)c1           Cmax                  6.3

----------
experiment: Pharmacokinetics of S9229 in rats, single iv or oral dose; format: in vivo, Sprague-Dawley rats; details: female, Sprague-Dawley, rat, plasma, po, 100 mg/kg
Endpoint Name: Cmax (ng/mL)

>>> df
                            entry_smiles  endpoint_name  experimental_result
0  COC[C@@H](CC(C)C)NC(=O)c1ccc(C)c(C)c1           Cmax                  102

----------
test: Pharmacokinetics of S9229 in rats, single iv or oral dose; assay type: in vivo, Sprague-Dawley rats; details: female, Sprague-Dawley, rat, plasma, po, 30 mg/kg
Endpoint Name: Tmax (min)

>>> print(df.to_string())
                            entry_smiles  unit_annotation  experimental_result
0  COC[C@@H](CC(C)C)NC(=O)c1ccc(C)c(C)c1              min                   15

----------
assay: Toxicokinetics of S9229 in the 28-day rat study; type: in vivo, Sprague-Dawley rats; settings: male, Sprague-Dawley [Crl:CD(SD)], rat, plasma, po, 30 mg/kg, t1/2, Day 28, 30 mg/kg bw, M
Endpoint Name: half-life (h)

In [3]: df
Out[3]:
                                   compound  unit_annotation  experimental_result
0  COC[C@@H](CC(C)C)NC(=O)c1ccc(C)c(C)c1 [S9229]                h                 1.42

----------
experiment: Pharmacokinetics of S807 in rats, single iv or oral dose; assay type: in vivo, Sprague-Dawley rats; conditions: female, Sprague-Dawley, rat, plasma, po, 200 mg/kg
Endpoint Name: Cmax (ng/mL)

>>> print(df.to_string())
                     entry_smiles  experimental_result
0  CCCC(CCC)NC(=O)c1ccc2c(c1)OCO2                 9150

----------
test: Toxicokinetics of S9229 in the 28-day rat study; assay type: in vivo, Sprague-Dawley rats; conditions: male, Sprague-Dawley (Crl:CD(SD)), rat, plasma, po, 10 mg/kg, Tmax, Day 28, 10 mg/kg bw, M
Endpoint Name: Tmax (h)

In [3]: df
Out[3]:
                            entry_smiles  endpoint_name  unit_annotation  experimental_result
0  COC[C@@H](CC(C)C)NC(=O)c1ccc(C)c(C)c1           Tmax                h                 1.67

----------
assay: Pharmacokinetics of S9229 in rats, single iv or oral dose; type: in vivo, Sprague-Dawley rats; conditions: female, Sprague-Dawley, rat, plasma, iv, 1 mg/kg
Endpoint Name: Cmax (ng/mL)

                            entry_smiles  endpoint_name  experimental_result
0  COC[C@@H](CC(C)C)NC(=O)c1ccc(C)c(C)c1           Cmax                 3940

----------
experiment: Toxicokinetics of S9229 in the 28-day rat study; assay type: in vivo, Sprague-Dawley rats; conditions: male, Sprague-Dawley (Crl:CD(SD)), rat, plasma, po, 100 mg/kg, Cmax, Day 1, 100 mg/kg bw, M
Endpoint Name: Cmax (ng/mL)

>>> print(df.to_string())
                            entry_smiles  experimental_result
0  COC[C@@H](CC(C)C)NC(=O)c1ccc(C)c(C)c1                  198

----------
experiment: Pharmacokinetics of S9229 in rats, single iv or oral dose; assay type: in vivo, Sprague-Dawley rats; conditions: female, Sprague-Dawley, rat, plasma, po, 10 mg/kg
Endpoint Name: half-life (min)

>>> df
                                   compound  experimental_result
0  COC[C@@H](CC(C)C)NC(=O)c1ccc(C)c(C)c1 [S9229]                 57.6

----------
test: Toxicokinetics of S9229 in the 28-day rat study; format: in vivo, Sprague-Dawley rats; settings: male, Sprague-Dawley (Crl:CD(SD)), rat, plasma, po, 10 mg/kg, t1/2, Day 1, 10 mg/kg bw, M
Endpoint Name: half-life

>>> df
                            entry_smiles  endpoint_name  experimental_result
0  COC[C@@H](CC(C)C)NC(=O)c1ccc(C)c(C)c1      half-life               54 min

----------
assay: Pharmacokinetics of S807 in rats, single iv or oral dose; assay type: in vivo, Sprague-Dawley rats; conditions: female, Sprague-Dawley, rat, plasma, iv, 1 mg/kg
Endpoint Name: Tmax (min)

                     entry_smiles  experimental_result
0  CCCC(CCC)NC(=O)c1ccc2c(c1)OCO2                 1.98

----------
test: Pharmacokinetics of S9229 in rats, single iv or oral dose; format: in vivo, Sprague-Dawley rats; conditions: male, Sprague-Dawley, rat, plasma, po, 30 mg/kg
Endpoint Name: Cmax (ng/mL)

>>> print(df.to_string())
                            entry_smiles  experimental_result
0  COC[C@@H](CC(C)C)NC(=O)c1ccc(C)c(C)c1                 11.9

----------
assay: Pharmacokinetics of S807 in rats, single iv or oral dose; format: in vivo, Sprague-Dawley rats; settings: male, Sprague-Dawley, rat, plasma, iv, 1 mg/kg, CL (clearance), iv 1 mg/kg bw, male rat
Endpoint Name: clearance (mL/min/kg)

>>> df
                                molecule  experimental_result
0  CCCC(CCC)NC(=O)c1ccc2c(c1)OCO2 [S807]                 30.7

----------
test: Toxicokinetics of S9229 in the 28-day rat study; assay type: in vivo, Sprague-Dawley rats; conditions: male, Sprague-Dawley (Crl:CD(SD)), rat, plasma, po, 100 mg/kg, AUC0-24hr, Day 1, 100 mg/kg bw, M
Endpoint Name: AUC(0-t) (ng·h/mL)

>>> print(df.to_string())
                            entry_smiles  experimental_result
0  COC[C@@H](CC(C)C)NC(=O)c1ccc(C)c(C)c1                  188

----------
experiment: Pharmacokinetics of S9229 in rats, single iv or oral dose; assay type: in vivo, Sprague-Dawley rats; conditions: female, Sprague-Dawley, rat, plasma, iv, 1 mg/kg
Endpoint Name: clearance

>>> print(df.to_string())
                            entry_smiles  experimental_result
0  COC[C@@H](CC(C)C)NC(=O)c1ccc(C)c(C)c1        7.9 mL/min/kg

----------
assay: Toxicokinetics of S9229 in the 28-day rat study; format: in vivo, Sprague-Dawley rats; conditions: female, Sprague-Dawley (Crl:CD(SD)), rat, plasma, po, 100 mg/kg, Cmax, Day 1, 100 mg/kg bw, F
Endpoint Name: Cmax (ng/mL)

>>> print(df.to_string())
                                   compound  unit_annotation  experimental_result
0  COC[C@@H](CC(C)C)NC(=O)c1ccc(C)c(C)c1 [S9229]            ng/mL                  356

----------
test: Pharmacokinetics of S9229 in rats, single iv or oral dose; format: in vivo, Sprague-Dawley rats; conditions: female, Sprague-Dawley, rat, plasma, po, 10 mg/kg
Endpoint Name: Cmax

>>> df
                            entry_smiles  experimental_result
0  COC[C@@H](CC(C)C)NC(=O)c1ccc(C)c(C)c1           10.5 ng/mL
